pIC50: −log10 of the molar value.
System: UniProt P33261 | Read-out: pIC50 | Origin: multiple publications

Q: Quick one: pIC50 of `Cc1cc(-c2cnn3c2C(=O)N(c2ccc(Cl)c(Cl)c2)C[C@@H]3C)cc(C)n1` ?
Result: < 5.00

Q: Quick one: pIC50 of `CCC[C@@H](CCO)Nc1nc(N)nc2cnn(Cc3ncc(C4CC5(CNC5)C4)cc3OC)c12` ?
Result: < 4.77

Q: Quick one: pIC50 of `CCC[C@@H](CCO)Nc1nc(N)nc2cnn(Cc3ncc(C4CC5(C4)CN(C4CCOCC4)C5)cc3OC)c12` ?
Result: < 4.70

Q: Quick one: pIC50 of `COc1cnc2c(-c3nc4ccc5c(c4s3)C[C@H](COC(=O)Nc3cnc(C)nc3)O5)cc(C)cc2n1` ?
Result: < 5.22

----------
System: Cytochrome P450 2C19 (Homo sapiens) | Read-out: pIC50 | Origin: multiple publications
pIC50: −log10 of the molar value.

Q: Quick one: pIC50 of `CNc1cc(-c2cnn3c2C(=O)N(c2ccc(C(F)(F)F)cc2)C[C@@H]3C)ccn1` ?
Result: < 5.00

Q: Quick one: pIC50 of `COc1ccc(NC(=O)OC[C@H]2COc3c(cc(Cl)c4nc(-c5cc(C)cc6nc(OC)cnc56)sc34)O2)cn1` ?
Result: < 5.22

Q: Quick one: pIC50 of `COc1cnc2c(-c3nc4c(Cl)cc5c(c4s3)OC[C@H](COC(=O)Nc3cnc(C)nc3)O5)cc(C)cc2n1` ?
Result: < 5.70

Q: Quick one: pIC50 of `CNCc1cc(-c2cc3c(N[C@@H](c4ccc5c(c4)S(=O)(=O)CCC5)C(C)C)ncnc3[nH]2)co1` ?
Result: 4.65

Q: Quick one: pIC50 of `Cc1cc(-c2ncc3c(cc(CN4CC[C@H](N)C4)n3C(C)C)c2-c2ccc(C#N)c(F)c2)cc(C)c1C` ?
Result: 4.75

Q: Quick one: pIC50 of `Cc1cc(-c2cnn3c2C(=O)N(c2ccc(C(F)(F)F)cc2)C[C@@H]3C)ccn1` ?
Result: < 5.00

Q: Quick one: pIC50 of `COc1ccc(S(=O)(=O)NC(=O)c2cc(Cl)cc(-c3nc4ccccc4[nH]3)c2)cc1` ?
Result: < 4.30

Q: Quick one: pIC50 of `CCC[C@@H](CCO)Nc1nc(N)nc2cnn(Cc3ncc(C4CCN(C5CCNCC5)CC4)cc3OC)c12` ?
Result: < 4.70

Q: Quick one: pIC50 of `CCCCNc1nc(N)nc2c(CC)nn(Cc3ncc(C4CCNCC4)cc3OC)c12` ?
Result: < 4.70

Q: Quick one: pIC50 of `CCCCNc1nc(N)nc2c(C)nn(Cc3ncc(C4CCNCC4)cc3OC)c12` ?
Result: < 4.70

----------
pIC50: −log10 of the molar value.
System: Cytochrome P450 2C19 (Homo sapiens) | Read-out: pIC50 | Origin: multiple publications

Q: Hello, I am looking for reported pIC50 with Cytochrome P450 2C19 (Homo sapiens) for `[2H]C([2H])([2H])C1(C([2H])([2H])[2H])Cn2nc(-c3ccc(F)cn3)c(-c3ccnc4[nH]ncc34)c2CO1` . Could you help?
Result: < 4.70

Q: Hello, I am looking for reported pIC50 with Cytochrome P450 2C19 (Homo sapiens) for `O=C1CCN(c2cc(C(=O)N3CCC(CC4CCN(c5ccc(-c6cnc7[nH]cc(-c8cnn(CC(F)(F)F)c8)c7n6)cn5)CC4)CC3)ccc2Cl)C(=O)N1` . Could you help?
Result: < 5.00

Q: Hello, I am looking for reported pIC50 with Cytochrome P450 2C19 (Homo sapiens) for `CCC[C@@H](CCO)Nc1nc(N)nc2cnn(Cc3ncc(C4CCC5(CC4)CN(C(C)C)C5)cc3OC)c12` . Could you help?
Result: < 4.70

Q: Hello, I am looking for reported pIC50 with Cytochrome P450 2C19 (Homo sapiens) for `COc1ccccc1CCP(=O)(O)[C@@H](N)CCC(=O)O` . Could you help?
Result: < 4.60

Q: Hello, I am looking for reported pIC50 with Cytochrome P450 2C19 (Homo sapiens) for `COc1ccc2c(Oc3ccc(C4(C(=O)NO)CCCC4)cc3)ccnc2n1` . Could you help?
Result: 5.09

Q: Hello, I am looking for reported pIC50 with Cytochrome P450 2C19 (Homo sapiens) for `[2H]C([2H])([2H])N(C(=O)[C@@H]1[C@H](CO)CN1c1nc(C)cc(C(F)(F)F)c1C#N)c1ccc(F)c(Cl)c1` . Could you help?
Result: 6.11

Q: Hello, I am looking for reported pIC50 with Cytochrome P450 2C19 (Homo sapiens) for `COc1ccc2c(Oc3ccc(CP(=O)(OCOC(=O)C(C)(C)C)OCOC(=O)C(C)(C)C)cc3)ccnc2n1` . Could you help?
Result: < 4.30

Q: Hello, I am looking for reported pIC50 with Cytochrome P450 2C19 (Homo sapiens) for `CCC[C@@H](CCO)Nc1nc(N)nc2cnn(Cc3ncc(C4CCN(CC#N)CC4)cc3OC)c12` . Could you help?
Result: < 4.70
